Target: WT STING (Homo sapiens, UniProt Q86WV6, H232R)
Experiment: 293T WT STING standard reporter assay
Type: cell-based
Design: host or cells: 293T (ATCC CRL-3216), stably transfected
Details: 293T wtSTING-FL cells, no digitonin, 7 h incubation, luciferase reporter
Sequence (Q86WV6 whole entry H232R): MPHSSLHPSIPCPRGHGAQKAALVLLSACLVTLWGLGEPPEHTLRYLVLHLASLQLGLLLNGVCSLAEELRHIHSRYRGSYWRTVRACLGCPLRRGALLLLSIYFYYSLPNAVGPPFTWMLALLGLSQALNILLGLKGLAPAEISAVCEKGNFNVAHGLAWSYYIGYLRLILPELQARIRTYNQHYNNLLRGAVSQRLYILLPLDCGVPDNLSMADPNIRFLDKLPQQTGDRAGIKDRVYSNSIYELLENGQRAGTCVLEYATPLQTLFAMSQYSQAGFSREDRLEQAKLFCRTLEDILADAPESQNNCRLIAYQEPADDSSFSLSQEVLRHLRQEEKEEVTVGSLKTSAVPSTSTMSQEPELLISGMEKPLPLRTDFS

- Molecule: "CCCCCCCC(=O)OCOP1(=O)OC[C@H]2OC[C@@H](n3cnc4c(N)ncnc43)[C@@H]2OP(=O)(OCOC(=O)CCCCCCC)OC[C@H]2O[C@@H](n3cnc4c(N)ncnc43)[C@H](F)[C@@H]2O1 (single isomer, unassigned) [Compound 58c]"
  Unit text: "nM"
  EC50: 2
- Molecule: "CC1(C(=O)OCOP2(=O)OC[C@H]3OC[C@@H](n4cnc5c(N)ncnc54)[C@@H]3OP(=O)(OCOC(=O)C3(C)CCCCC3)OC[C@H]3O[C@@H](n4cnc5c(N)ncnc54)[C@H](F)[C@@H]3O2)CCCCC1 (single isomer, unassigned) [Compound 56c]"
  Unit text: "nM"
  EC50: 21
- Molecule: "CCC(C)(C)C(=O)OCOP1(=O)OC[C@H]2OC[C@@H](n3cnc4c(N)ncnc43)[C@@H]2OP(=O)(OCOC(=O)C(C)(C)CC)OC[C@H]2O[C@@H](n3cnc4c(N)ncnc43)[C@H](F)[C@@H]2O1 (single isomer, unassigned) [Compound 57b]"
  Unit text: "nM"
  EC50: 18
- Molecule: "Nc1ncnc2c1ncn2[C@@H]1CO[C@@H]2COP(=O)(S)O[C@H]3[C@@H](F)[C@H](n4cnc5c(N)ncnc54)O[C@@H]3COP(=O)(S)O[C@@H]12 (stereo partly shown) [Compound 54]"
  Unit text: "nM"
  EC50: 156

---

Target: WT STING (Homo sapiens, UniProt Q86WV6, H232R)
Test: Differential scanning fluorimetry with WT STING
Type: binding
Design: truncated human WT STING or AQ STING (amino acid residues 140-343); 8xHis (N, cleaved yes); SUMO (N, cleaved yes); made in house; host or cells: E. coli Rosetta-gami B (DE3)
Details: thermal shift, truncated human WT STING 0.1 mg/ml, 150 μM CDN; read-out: DSF ΔTm WT STING
Sequence (Q86WV6 140-343 H232R): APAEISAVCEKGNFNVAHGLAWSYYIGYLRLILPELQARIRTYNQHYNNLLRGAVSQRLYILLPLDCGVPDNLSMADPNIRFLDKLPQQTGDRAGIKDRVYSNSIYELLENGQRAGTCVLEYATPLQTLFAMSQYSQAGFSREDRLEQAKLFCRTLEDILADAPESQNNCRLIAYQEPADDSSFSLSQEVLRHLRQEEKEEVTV

- Mol: "Nc1nc2c(ncn2[C@@H]2CO[C@@H]3COP(=O)(O)O[C@H]4C[C@H](n5cnc6c(N)ncnc65)O[C@@H]4COP(=O)(O)O[C@@H]23)c(=O)[nH]1"
  ΔTm at 150 µM [°C]: 2.9
- Mol: "Nc1nc2c(ncn2[C@@H]2CO[C@@H]3COP(=O)(O)O[C@H]4[C@@H](F)[C@H](n5cnc6c(N)ncnc65)O[C@@H]4COP(=O)(O)O[C@@H]23)c(=O)[nH]1"
  ΔTm at 150 µM [°C]: 6.8
- Mol: "Nc1ncnc2c1ncn2[C@@H]1CC[C@@H]2COP(=O)(O)O[C@H]3[C@@H](F)[C@H](n4cnc5c(N)ncnc54)O[C@@H]3COP(=O)(O)O[C@H]21"
  ΔTm at 150 µM [°C]: 1.6

---

Target: WT STING (Homo sapiens, UniProt Q86WV6, H232R)
Experiment: 293T WT STING standard reporter assay
Assay type: cell-based
Parameters: host or cells: 293T (ATCC CRL-3216), stably transfected
Conditions: 293T wtSTING-FL cells, no digitonin, 7 h incubation, luciferase reporter
pEC50: −log10 of the molar value.
Hi, to clarify the labels: t covers pEC50 from 7 upward, f covers anything below 7.

- Compound: "CCCCCCCC(=O)OCOP1(=O)OC[C@H]2OC[C@@H](n3cnc4c(N)ncnc43)[C@@H]2OP(=O)(OCOC(=O)CCCCCCC)OC[C@H]2O[C@@H](n3cnc4c(N)ncnc43)[C@H](F)[C@@H]2O1 (single isomer, unassigned) [Compound 58a]"
  Category: "t"
- Compound: "CCC(C)(C)C(=O)OCOP1(=O)OC[C@H]2OC[C@@H](n3cnc4c(N)ncnc43)[C@@H]2OP(=O)(OCOC(=O)C(C)(C)CC)OC[C@H]2O[C@@H](n3cnc4c(N)ncnc43)[C@H](F)[C@@H]2O1 (single isomer, unassigned) [Compound 57d]"
  Category: "t"
- Compound: "CCCCCCCC(=O)OCOP1(=O)OC[C@H]2OC[C@@H](n3cnc4c(N)ncnc43)[C@@H]2OP(=O)(OCOC(=O)CCCCCCC)OC[C@H]2O[C@@H](n3cnc4c(N)ncnc43)[C@H](F)[C@@H]2O1 (single isomer, unassigned) [Compound 58b]"
  Category: "t"
- Compound: "CCC(C)(C)C(=O)OCOP1(=O)OC[C@H]2OC[C@@H](n3cnc4c(N)ncnc43)[C@@H]2OP(=O)(OCOC(=O)C(C)(C)CC)OC[C@H]2O[C@@H](n3cnc4c(N)ncnc43)[C@H](F)[C@@H]2O1 (single isomer, unassigned) [Compound 57a]"
  Category: "t"
- Compound: "CCC(C)(C)C(=O)OCOP1(=O)OC[C@H]2OC[C@@H](n3cnc4c(N)ncnc43)[C@@H]2OP(=O)(OCOC(=O)C(C)(C)CC)OC[C@H]2O[C@@H](n3cnc4c(N)ncnc43)[C@H](F)[C@@H]2O1 (single isomer, unassigned) [Compound 57c]"
  Category: "t"
- Compound: "CC1(C(=O)OCOP2(=O)OC[C@H]3OC[C@@H](n4cnc5c(N)ncnc54)[C@@H]3OP(=O)(OCOC(=O)C3(C)CCCCC3)OC[C@H]3O[C@@H](n4cnc5c(N)ncnc54)[C@H](F)[C@@H]3O2)CCCCC1 (single isomer, unassigned) [Compound 56b]"
  Category: "t"
- Compound: "CC1(C(=O)OCOP2(=O)OC[C@H]3OC[C@@H](n4cnc5c(N)ncnc54)[C@@H]3OP(=O)(OCOC(=O)C3(C)CCCCC3)OC[C@H]3O[C@@H](n4cnc5c(N)ncnc54)[C@H](F)[C@@H]3O2)CCCCC1 (single isomer, unassigned) [Compound 56a]"
  Category: "f"
- Compound: "CC(C)(C)C(=O)OCOP1(=O)OC[C@H]2OC[C@@H](n3cnc4c(N)ncnc43)[C@@H]2OP(=O)(OCOC(=O)C(C)(C)C)OC[C@H]2O[C@@H](n3cnc4c(N)ncnc43)[C@H](F)[C@@H]2O1 (single isomer, unassigned) [Compound 36d]"
  Category: "t"
- Compound: "Nc1nc2c(ncn2[C@@H]2O[C@@H]3COP(=O)(O)O[C@@H]4[C@H](O)[C@@H](COP(=O)(O)O[C@@H]2[C@@H]3O)O[C@H]4n2cnc3c(N)ncnc32)c(=O)[nH]1 [2′2′-cGAMP, reference compound]"
  Category: "f"
- Compound: "Nc1ncnc2c1ncn2[C@@H]1CO[C@@H]2COP(=O)(S)O[C@H]3[C@@H](F)[C@H](n4cnc5c(N)ncnc54)O[C@@H]3COP(=O)(S)O[C@@H]12 (stereo partly drawn) [Compound 55]"
  Category: "f"
- Compound: "CC1(C(=O)OCOP2(=O)OC[C@H]3OC[C@@H](n4cnc5c(N)ncnc54)[C@@H]3OP(=O)(OCOC(=O)C3(C)CCCCC3)OC[C@H]3O[C@@H](n4cnc5c(N)ncnc54)[C@H](F)[C@@H]3O2)CCCCC1 (single isomer, unassigned) [Compound 56d]"
  Category: "t"
- Compound: "CC(C)(C)C(=O)OCOP1(=O)OC[C@H]2OC[C@@H](n3cnc4c(N)ncnc43)[C@@H]2OP(=O)(OCOC(=O)C(C)(C)C)OC[C@H]2O[C@@H](n3cnc4c(N)ncnc43)[C@H](F)[C@@H]2O1 (single isomer, unassigned) [Compound 36c]"
  Category: "t"
- Compound: "CCCCCCCC(=O)OCOP1(=O)OC[C@H]2OC[C@@H](n3cnc4c(N)ncnc43)[C@@H]2OP(=O)(OCOC(=O)CCCCCCC)OC[C@H]2O[C@@H](n3cnc4c(N)ncnc43)[C@H](F)[C@@H]2O1 (single isomer, unassigned) [Compound 58d]"
  Category: "t"

---

Molecular target: AQ STING (G230A-R293Q) (Homo sapiens, UniProt Q86WV6, G230A/H232R/R293Q)
Construct: truncated human WT STING or AQ STING (amino acid residues 140-343); 8xHis (N, cleaved yes); SUMO (N, cleaved yes); made in house; host or cells: E. coli Rosetta-gami B (DE3)
Sequence (Q86WV6 140-343 G230A/H232R/R293Q): as the sequence (Q86WV6 140-343 H232R) above, with G91A, R154Q counted along it
Experiment: Differential scanning fluorimetry with AQ STING
Assay type: binding
Conditions: thermal shift, truncated human AQ STING 0.1 mg/ml, 150 μM CDN; read-out: DSF ΔTm AQ STING
Binary label based on ΔTm at 150 µM with cut-off 10 °C: below gives true, not below gives false.

- Molecule: "Nc1ncnc2c1ncn2[C@@H]1CO[C@@H]2COP(=O)(O)O[C@H]3[C@@H](F)[C@H](n4cnc5c(N)ncnc54)O[C@@H]3COP(=O)(O)O[C@@H]12"
  Target under test: "AQ STING (G230A-R293Q) (Homo sapiens, UniProt Q86WV6, G230A/H232R/R293Q)"
  Category: "false"
- Molecule: "Nc1nc2c(ncn2[C@@H]2O[C@@H]3COP(=O)(O)O[C@H]4[C@H](n5cnc6c(N)ncnc65)CO[C@@H]4COP(=O)(O)O[C@H]3[C@H]2F)c(=O)[nH]1"
  Target under test: "AQ STING (G230A-R293Q) (Homo sapiens, UniProt Q86WV6, G230A/H232R/R293Q)"
  Category: "false"
- Molecule: "Nc1ncnc2c1ncn2[C@@H]1CO[C@@H]2COP(=O)(O)O[C@H]3C[C@H](n4cnc5c(N)ncnc54)O[C@@H]3COP(=O)(O)O[C@@H]12"
  Target under test: "AQ STING (G230A-R293Q) (Homo sapiens, UniProt Q86WV6, G230A/H232R/R293Q)"
  Category: "true"
- Molecule: "Nc1nc2c(ncn2[C@@H]2CO[C@@H]3COP(=O)(O)O[C@H]4[C@H](n5cnc6c(N)ncnc65)CO[C@@H]4COP(=O)(O)O[C@@H]23)c(=O)[nH]1"
  Target under test: "AQ STING (G230A-R293Q) (Homo sapiens, UniProt Q86WV6, G230A/H232R/R293Q)"
  Category: "false"
- Molecule: "Nc1ncnc2c1ncn2[C@@H]1CO[C@@H]2COP(=O)(S)O[C@H]3[C@@H](F)[C@H](n4cnc5c(N)ncnc54)O[C@@H]3COP(=O)(S)O[C@@H]12 (some centres unmarked)"
  Target under test: "AQ STING (G230A-R293Q) (Homo sapiens, UniProt Q86WV6, G230A/H232R/R293Q)"
  Category: "false"
- Molecule: "Nc1ncnc2c1ncn2[C@@H]1CC[C@@H]2COP(=O)(O)O[C@H]3[C@@H](F)[C@H](n4cnc5c(N)ncnc54)O[C@@H]3COP(=O)(O)O[C@H]21"
  Target under test: "AQ STING (G230A-R293Q) (Homo sapiens, UniProt Q86WV6, G230A/H232R/R293Q)"
  Category: "true"
- Molecule: "Nc1nc2c(ncn2[C@@H]2CO[C@@H]3COP(=O)(O)O[C@H]4C[C@H](n5cnc6c(N)ncnc65)O[C@@H]4COP(=O)(O)O[C@@H]23)c(=O)[nH]1"
  Target under test: "AQ STING (G230A-R293Q) (Homo sapiens, UniProt Q86WV6, G230A/H232R/R293Q)"
  Category: "false"
- Molecule: "Nc1nc2c(ncn2[C@@H]2CO[C@@H]3COP(=O)(O)O[C@H]4[C@@H](F)[C@H](n5cnc6c(N)ncnc65)O[C@@H]4COP(=O)(O)O[C@@H]23)c(=O)[nH]1"
  Target under test: "AQ STING (G230A-R293Q) (Homo sapiens, UniProt Q86WV6, G230A/H232R/R293Q)"
  Category: "false"

Cited source for all entries: patent US20240166681A1
